System: firefly luciferase (FLuc)
Test: normalised percent inhibition of luminescence (vs positive and negative controls); higher = stronger inhibition
Settings: metal salt concentration 0.5 mM; 100 mM HEPES buffer
Known normalised percent inhibition of a selection of molecules

{"columns": ["MOLECULE", "normalised percent inhibition / %"],
 "data": [
  ["O=[N+]([O-])[O-].O=[N+]([O-])[O-].[Cu+2] [copper(II) nitrate]", 100],
  ["O=[N+]([O-])[O-].O=[N+]([O-])[O-].[Pb+2] [lead(II) nitrate]", 100],
  ["O.O.O.O.O.O.O.O=S(=O)([O-])[O-].[Mg+2] [magnesium sulfate]", -19.2],
  ["CC#N.CC#N.CC#N.CC#N.F[B-](F)(F)F.[Cu+] [tetrakis(acetonitrile)copper(I) tetrafluoroborate]", 100],
  ["[Cl][Sn][Cl] [tin(II) chloride]", 11.7],
  ["O=[N+]([O-])[O-].O=[N+]([O-])[O-].[Cd+2] [cadmium nitrate]", 100],
  ["[Cl][Pt-2]([Cl])([Cl])[Cl].[K+].[K+] [potassium tetrachloroplatinate(II)]", 100],
  ["[Cl][Fe]([Cl])[Cl] [iron(III) chloride]", 100],
  ["O=[N+]([O-])[O-].O=[N+]([O-])[O-].[Zn+2] [zinc nitrate]", 100],
  ["O=[N+]([O-])[O-].[Ag+] [silver nitrate]", 100],
  ["O=[N+]([O-])[O-].O=[N+]([O-])[O-].O=[N+]([O-])[O-].[Ga+3] [gallium(III) nitrate]", 99.8],
  ["[Cl][Fe][Cl] [iron(II) chloride]", 100],
  ["O=S(=O)([O-])[O-].[Fe+2] [iron(II) sulfate]", 100]
]}

The measured values listed here are drawn from the supplement of paper PMC11628255.
